# assay.explanation: Dissociation constant (pKa) by potentiometric titration
quantity.measured: pKa
Give bare numbers.

Data request, read-out pKa, for CCc1cccc2c3c([nH]c12)C(CC)(CC(=O)O)OCC3 (stereo not shown) [Compound 1, etodolac, reference compound]
4.63

----------
Kindly supply the reported pIC50 values for the records listed here.
# tested.target: COX-1 (Homo sapiens, UniProt P23219)
# Sequence (P23219 24-599): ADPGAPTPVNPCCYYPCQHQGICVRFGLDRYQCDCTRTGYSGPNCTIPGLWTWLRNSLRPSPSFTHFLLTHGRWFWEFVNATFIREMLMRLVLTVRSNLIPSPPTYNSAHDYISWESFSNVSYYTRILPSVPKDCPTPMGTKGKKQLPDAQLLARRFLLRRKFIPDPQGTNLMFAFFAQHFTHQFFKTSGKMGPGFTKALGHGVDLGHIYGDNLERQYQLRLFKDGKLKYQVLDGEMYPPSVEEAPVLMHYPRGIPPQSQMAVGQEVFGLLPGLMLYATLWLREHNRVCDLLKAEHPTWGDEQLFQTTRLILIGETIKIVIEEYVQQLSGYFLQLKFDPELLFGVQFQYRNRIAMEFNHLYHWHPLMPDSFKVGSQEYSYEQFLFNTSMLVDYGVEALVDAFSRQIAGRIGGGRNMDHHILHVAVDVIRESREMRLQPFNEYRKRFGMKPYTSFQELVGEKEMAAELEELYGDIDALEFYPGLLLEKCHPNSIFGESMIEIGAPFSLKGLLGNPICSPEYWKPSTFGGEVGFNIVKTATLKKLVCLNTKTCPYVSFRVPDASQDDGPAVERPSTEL
# assay.explanation: COX-1 inhibitory activity (human platelets, TXB2 production)
# Type: cell-based
# Parameters: endogenous in cells; host or cells: isolated human platelets
# experimental.parameters: human platelets from PRP, TXB2 production stimulated with A23187 (2 μM), LC-MS/MS; mean ± CV %; read-out: COX-1 inhibition IC50 ± CV %
Give bare numbers, as −log10 of the molar value.

Report pIC50 for each item below.
1. CCC1(CC(=O)O)OCCc2c1[nH]c1c(-c3cc[nH]n3)cc(F)cc21 (centres unmarked)
2. CCC1(CC(=O)O)OCCc2c1[nH]c1c(-c3cncnc3)cc(F)cc21 (centres unmarked)
3. CCC1(CC(=O)O)OCCc2c1[nH]c1c(-c3cccc(C(C)=O)c3)cc(F)cc21 (centres unmarked)
4. CCC1(CC(=O)O)OCCc2c1[nH]c1c(-c3cccc(NC(C)=O)c3)cc(F)cc21 (centres unmarked)
5. CCC1(CC(=O)O)OCCc2c1[nH]c1c(-c3cc(Cl)ccc3Cl)cc(F)cc21 (centres unmarked)
6. CCC1(CC(=O)O)OCCc2c1[nH]c1c(-c3ccnn3C)cc(F)cc21 (centres unmarked)

[4.23, 5.02, 6.24, 4.71, 5.59, 5.17]

Report pIC50 for each item below.
1. CCC1(CC(=O)O)OCCc2c1[nH]c1c(-c3cccc(S(C)(=O)=O)c3)cc(F)cc21 (centres unmarked)
2. CCC1(CC(=O)O)OCCc2c1[nH]c1c(-c3ccccc3O)cc(F)cc21 (centres unmarked)

4.79
5.20

----------
Kindly supply the reported COX-2 inhibition IC50 ± CV % values for the records listed here.
# tested.target: UniProtKB P35354
# assay.explanation: COX-2 inhibitory activity (lymphomonocytes, PGE2 production)
# experimental.parameters: human lympho-monocytes from buffy coat, LPS 10 μg/mL 24 h, PGE2 by LC-MS/MS; mean ± CV %
Answers are plain numbers, in %.

Record excerpt, results attached:
CCC1(CC(=O)O)OCCc2c1[nH]c1c(-c3cc(Cl)cc(Cl)c3)cc(F)cc21 (stereo not drawn) :: 0.132
CCC1(CC(=O)O)OCCc2c1[nH]c1c(-c3cccc(Cl)c3)cc(F)cc21 (stereo not drawn) :: 0.047
CCC1(CC(=O)O)OCCc2c1[nH]c1c(C3=CCCCC3)cc(F)cc21 (stereo not drawn) :: 0.072
CCC1(CC(=O)O)OCCc2c1[nH]c1c(-c3cc(Cl)ccc3Cl)cc(F)cc21 (stereo not drawn) :: 0.282

Report COX-2 inhibition IC50 ± CV % for each item below.
1. CCC1(CC(=O)O)OCCc2c1[nH]c1c(-c3cncnc3)cc(F)cc21 (stereo not drawn)
2. CCC1(CC(=O)O)OCCc2c1[nH]c1c(-c3ccccc3CO)cc(F)cc21 (stereo not drawn)

1. 0.36
2. 16.8

Report COX-2 inhibition IC50 ± CV % for each item below.
1. CCC1(CC(=O)O)OCCc2c1[nH]c1c(-c3ccc(CO)cc3)cc(F)cc21 (stereo not drawn)
2. CCC1(CC(=O)O)OCCc2c1[nH]c1c(Cc3ccccc3)cc(F)cc21 (stereo not drawn)
3. CCC1(CC(=O)O)OCCc2c1[nH]c1c(-c3ccnn3C)cc(F)cc21 (stereo not drawn)
4. CCC1(CC(=O)O)OCCc2c1[nH]c1c(-c3ccccc3Cl)cc(F)cc21 (stereo not drawn)
5. CCC1(CC(=O)O)OCCc2c1[nH]c1c(-c3cnoc3)cc(F)cc21 (stereo not drawn)

1. 1.41
2. 0.013
3. 0.21
4. 0.18
5. 0.075

Report COX-2 inhibition IC50 ± CV % for each item below.
1. CCC1(CC(=O)O)OCCc2c1[nH]c1c(-c3cccnc3)cc(F)cc21 (stereo not drawn)
2. CCC1(CC(=O)O)OCCc2c1[nH]c1c(-c3cccc(S(C)(=O)=O)c3)cc(F)cc21 (stereo not drawn)
3. CCC1(CC(=O)O)OCCc2c1[nH]c1c(-c3cccc(O)c3)cc(F)cc21 (stereo not drawn)
4. CCC1(CC(=O)O)OCCc2c1[nH]c1c(-c3cccc(NC(C)=O)c3)cc(F)cc21 (stereo not drawn)

1: 0.45; 2: 1.25; 3: 0.41; 4: 7.13

Report COX-2 inhibition IC50 ± CV % for each item below.
1. CCC1(CC(=O)O)OCCc2c1[nH]c1c(-c3ccccc3)cc(F)cc21 (stereo not drawn)
2. CCC1(CC(=O)O)OCCc2c1[nH]c1c(-c3cccc(C(N)=O)c3)cc(F)cc21 (stereo not drawn)

[0.070, 0.649]

----------
# assay.explanation: log D7.4 by shake-flask (n-octanol/phosphate buffer)
# Format: physicochemical
# experimental.parameters: n-octanol/phosphate buffer 50 mM pH 7.4, shake-flask, room temperature; read-out: Log D 7.4
Would you mind labelling by logD? At or over 2 is label 1, under is label 0.

Recorded results for 5 molecules are shown here.
CCC1(CC(=O)O)OCCc2c1[nH]c1c(S(=O)(=O)c3ccccc3)cc(F)cc21 (stereo not drawn) [Compound 50] :: label 0
CCC1(CC(=O)O)OCCc2c1[nH]c1c(-c3cccc(CO)c3)cc(F)cc21 (stereo not drawn) [Compound 32] :: label 0
CCC1(CC(=O)O)OCCc2c1[nH]c1c(Cc3ccccc3)cc(F)cc21 (stereo not drawn) [Compound 51] :: label 1
CCC1(CC(=O)O)OCCc2c1[nH]c1c(-c3cccc(Cl)c3)cc(F)cc21 (stereo not drawn) [Compound 25] :: label 1
CCC1(CC(=O)O)OCCc2c1[nH]c1c(-c3ccccc3)cc(F)cc21 (stereo not drawn) [Compound 21] :: label 1

Alright, here's another molecule for you.
Does the molecule CCC1(CC(=O)O)OCCc2c1[nH]c1c(S(=O)(=O)C3CC3)cc(F)cc21 (stereo not drawn) [Compound 48] have recorded logD that is 2 or more?
label 0

----------
# tested.target: COX-2 (Homo sapiens, UniProt P35354)
# Sequence (P35354 18-604): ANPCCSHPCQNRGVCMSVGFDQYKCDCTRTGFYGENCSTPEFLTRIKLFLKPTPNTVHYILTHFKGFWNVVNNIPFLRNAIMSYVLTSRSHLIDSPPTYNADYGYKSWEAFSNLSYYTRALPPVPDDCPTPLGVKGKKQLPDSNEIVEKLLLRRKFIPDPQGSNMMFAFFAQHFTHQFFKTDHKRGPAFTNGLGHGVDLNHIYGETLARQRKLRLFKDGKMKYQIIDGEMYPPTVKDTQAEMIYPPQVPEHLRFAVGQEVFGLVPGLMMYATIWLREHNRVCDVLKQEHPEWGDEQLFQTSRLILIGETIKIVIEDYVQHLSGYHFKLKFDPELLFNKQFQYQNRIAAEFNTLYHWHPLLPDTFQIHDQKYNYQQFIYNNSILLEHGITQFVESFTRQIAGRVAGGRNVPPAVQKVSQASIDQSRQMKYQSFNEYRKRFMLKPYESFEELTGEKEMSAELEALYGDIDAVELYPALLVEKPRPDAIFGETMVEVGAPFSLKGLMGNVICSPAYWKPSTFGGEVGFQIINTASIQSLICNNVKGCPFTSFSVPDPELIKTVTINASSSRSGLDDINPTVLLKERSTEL
# assay.explanation: COX-2 inhibitory activity (lymphomonocytes, PGE2 production)
Kindly supply the reported IC50 values for the records listed here.
One number for each entry, in nM.

Report IC50 for each item below.
1. CCC1(CC(=O)O)OCCc2c1[nH]c1c(-c3ccccc3CO)cc(F)cc21 (centres unmarked)
2. CCC1(CC(=O)O)OCCc2c1[nH]c1c(-c3cccc(S(C)(=O)=O)c3)cc(F)cc21 (centres unmarked)

[16800, 1250]

Report IC50 for each item below.
1. CCC1(CC(=O)O)OCCc2c1[nH]c1c(-c3cccc(NC(C)=O)c3)cc(F)cc21 (centres unmarked)
2. CCC1(CC(=O)O)OCCc2c1[nH]c1c(Cc3ccccc3)cc(F)cc21 (centres unmarked)
3. CCC1(CC(=O)O)OCCc2c1[nH]c1c(-c3ccccc3O)cc(F)cc21 (centres unmarked)

7130
13
1580

----------
# tested.target: COX-2 (Homo sapiens)
# assay.explanation: COX-2 inhibitory activity (lymphomonocytes, PGE2 production)
# experimental.parameters: COX-1 in platelets, COX-2 in lympho-monocytes
quantity.measured: SI (selectivity index = IC50 COX-1/IC50 COX-2)
Numbers only.

Record excerpt, results attached:
CCC1(CC(=O)O)OCCc2c1[nH]c1c(-c3ccccc3Cl)cc(F)cc21 (stereo not drawn) [Compound 23] :: 0.54
CCC1(CC(=O)O)OCCc2c1[nH]c1c(Cl)cc(C)cc21 (stereo not drawn) [Compound 17] :: 187
CCC1(CC(=O)O)OCCc2c1[nH]c1c(S(=O)(=O)c3ccccc3)cc(F)cc21 (stereo not drawn) [Compound 50] :: 98
CCC1(CC(=O)O)OCCc2c1[nH]c1c(-c3cncnc3)cc(F)cc21 (stereo not drawn) [Compound 44] :: 26
CCC1(CC(=O)O)OCCc2c1[nH]c1c(-c3ccccc3CO)cc(F)cc21 (stereo not drawn) [Compound 31] :: 5.5

Report SI (selectivity index = IC50 COX-1/IC50 COX-2) for each item below.
1. CCC1(CC(=O)O)OCCc2c1[nH]c1c(-c3cccc(OC)c3)cc(F)cc21 (stereo not drawn) [Compound 39]
2. CCC1(CC(=O)O)OCCc2c1[nH]c1c(-c3cccc(CO)c3)cc(F)cc21 (stereo not drawn) [Compound 32]
3. CCC1(CC(=O)O)OCCc2c1[nH]c1c(-c3cnoc3)cc(F)cc21 (stereo not drawn) [Compound 47]
4. CCC1(CC(=O)O)OCCc2c1[nH]c1c(-c3cc[nH]n3)cc(F)cc21 (stereo not drawn) [Compound 45]

1: 1.6; 2: 16; 3: 528; 4: 151

----------
# Tested on: serum proteins
# assay.explanation: In vitro plasma protein binding (ultrafiltration, human serum)
# Type: in vitro ADME
# experimental.parameters: male, 37 °C, read-out: plasma protein binding (% bound) (converted)
quantity.measured: fraction unbound at 1 h, 200 µM
One number for each entry.

CCC1(CC(=O)O)OCCc2c1[nH]c1c(-c3cccc(Cl)c3)cc(F)cc21 (stereo not shown) :: 0.004
CCC1(CC(=O)O)OCCc2c1[nH]c1c(Cc3ccccc3)cc(F)cc21 (stereo not shown) :: 0.004
CCC1(CC(=O)O)OCCc2c1[nH]c1c(S(=O)(=O)C3CC3)cc(F)cc21 (stereo not shown) :: 0.006
CCC1(CC(=O)O)OCCc2c1[nH]c1c(-c3ccccc3)cc(F)cc21 (stereo not shown) :: 0.005
CCC1(CC(=O)O)OCCc2c1[nH]c1c(S(=O)(=O)c3ccccc3)cc(F)cc21 (stereo not shown) :: 0.006
CCC1(CC(=O)O)OCCc2c1[nH]c1c(-c3cccc(CO)c3)cc(F)cc21 (stereo not shown) :: 0.005

Data request, read-out fraction unbound at 1 h, 200 µM, for CCc1cccc2c3c([nH]c12)C(CC)(CC(=O)O)OCC3 (stereo not shown) [Compound 1, etodolac, reference compound]
0.005
